tgt: 26S proteasome non-ATPase regulatory subunit 14 (Homo sapiens) (UniProt O00487)
Sequence (O00487 whole entry, looked up): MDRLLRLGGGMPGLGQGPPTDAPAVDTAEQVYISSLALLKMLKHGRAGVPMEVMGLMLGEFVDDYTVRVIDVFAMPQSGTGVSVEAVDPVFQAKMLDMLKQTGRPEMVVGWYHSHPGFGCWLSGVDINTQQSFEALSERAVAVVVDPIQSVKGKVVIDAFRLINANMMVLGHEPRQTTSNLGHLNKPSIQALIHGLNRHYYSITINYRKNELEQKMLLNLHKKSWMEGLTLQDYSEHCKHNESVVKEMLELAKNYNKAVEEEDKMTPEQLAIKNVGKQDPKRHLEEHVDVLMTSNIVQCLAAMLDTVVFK
assay-remarks: Rpn11 (PSMD14) deubiquitinase inhibitors, dose response, biochemical, fluorescence polarization, human 26S proteasome, uHTS hits (AID 686917)
particulars: purified human 26S proteasome, Ub4-pepOG fluorescence polarization
pIC50: −log10 of the molar value.
result-type: pIC50

[
  {
    "smiles-data": "O=C(Sc1cccc2cccnc12)c1ccccc1OC(F)(F)F",
    "reported-value": 5.39
  },
  {
    "smiles-data": "CC(C)(C)OC(=O)CCNC(=O)c1cnc2c(SSc3cccc4cc(C(=O)NCCC(=O)OC(C)(C)C)cnc34)cccc2c1",
    "reported-value": 5.31
  }
]

A. O=C(Sc1cccc2cccnc12)c1ccccc1[N+](=O)[O-]
B. O=C(Sc1cccc2cccnc12)c1ccccc1I
Ask: Form field 'greater pIC50' accepts A or B ; which applies? Record your answer as the label of the chosen record.
Result: B

1. COC(=O)[C@H](CC(C)C)NC(=O)c1cnc2c(SSc3cccc4cc(C(=O)N[C@@H](CC(C)C)C(=O)OC)cnc34)cccc2c1
2. O=C(Sc1cccc2cccnc12)c1ccc2c(c1)OCO2
Ask: Smaller pIC50 value, 1 vs 2 ? Let me know the label of the one you choose.
Result: 2
(2: 4.85, 1: 5.27)
